Entries and their Ki
# target-or-test-system: alpha1A adrenoceptor (Homo sapiens, UniProt P35348)
# Construct: expressed in transfected cells; host or cells: CHO-K1
# Sequence (P35348 whole entry): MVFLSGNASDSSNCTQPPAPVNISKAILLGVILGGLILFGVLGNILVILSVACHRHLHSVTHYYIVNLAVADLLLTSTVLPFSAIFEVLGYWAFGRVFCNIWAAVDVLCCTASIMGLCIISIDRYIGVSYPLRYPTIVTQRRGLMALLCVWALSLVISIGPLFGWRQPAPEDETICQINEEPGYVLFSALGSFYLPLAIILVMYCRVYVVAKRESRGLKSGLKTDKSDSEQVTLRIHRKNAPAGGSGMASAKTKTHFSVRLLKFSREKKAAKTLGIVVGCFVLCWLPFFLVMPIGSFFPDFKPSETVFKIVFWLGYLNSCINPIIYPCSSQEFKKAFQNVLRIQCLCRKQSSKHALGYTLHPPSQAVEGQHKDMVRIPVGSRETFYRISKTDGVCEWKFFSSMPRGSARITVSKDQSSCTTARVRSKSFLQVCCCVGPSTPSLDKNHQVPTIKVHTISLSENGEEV
# experiment-summary: [3H]prazosin binding (alpha1-adrenoceptor) assay, alpha 1A
# experimental-conditions: transfected CHO-K1 cell membranes, read-out: pKi alpha 1A (converted)
Give the number; nM is assumed, so skip it.

Worked cases, answers included:
COc1cc2[nH]c(N3CCC(CCn4ccnc4)CC3)nc(=O)c2c(C)c1OC: 5.25
COc1cc2[nH]c(N3CCC4(CC3)CN(c3ccc(F)cc3)C(=O)CO4)nc(=O)c2c(OC)c1OC: 6.17
CNCC(=O)N(C)Cc1cccc2c1CCN(c1nc(=O)c3c(C)c(OC)c(OC)cc3[nH]1)C2: 1.58

--- query ---
Ask | What Ki value was documented for this molecule, COc1cc2[nH]c(N3CCN(c4ncc[nH]4)CC3)nc(=O)c2c(OC)c1OC ?
Reply | 1.12

====

Entries and their Ki
# target-or-test-system: alpha1B adrenoceptor (Homo sapiens)
# Construct: expressed in transfected cells; host or cells: CHO-K1
# Sequence (P35368 whole entry): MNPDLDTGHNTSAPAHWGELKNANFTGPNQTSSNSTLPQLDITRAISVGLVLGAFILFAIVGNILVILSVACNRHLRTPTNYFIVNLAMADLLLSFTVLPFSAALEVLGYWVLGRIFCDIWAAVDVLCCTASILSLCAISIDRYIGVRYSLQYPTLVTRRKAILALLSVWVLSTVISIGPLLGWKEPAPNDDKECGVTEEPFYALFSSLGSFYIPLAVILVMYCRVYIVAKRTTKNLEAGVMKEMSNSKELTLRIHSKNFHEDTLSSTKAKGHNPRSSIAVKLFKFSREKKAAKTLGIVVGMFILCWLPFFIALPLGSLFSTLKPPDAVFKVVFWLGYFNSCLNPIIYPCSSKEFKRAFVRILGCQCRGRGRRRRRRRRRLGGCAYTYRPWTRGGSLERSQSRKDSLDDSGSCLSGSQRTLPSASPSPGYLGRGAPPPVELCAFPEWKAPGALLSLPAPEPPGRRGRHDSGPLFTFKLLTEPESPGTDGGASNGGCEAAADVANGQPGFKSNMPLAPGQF
# experiment-summary: [3H]prazosin binding (alpha1-adrenoceptor) assay, alpha 1B
# experimental-conditions: transfected CHO-K1 cell membranes, read-out: pKi alpha 1B (converted)
Give the number; nM is assumed, so skip it.

COc1cc2[nH]c(N3CCC4(CC3)CN(c3ccc(F)cc3)C(=O)CO4)nc(=O)c2c(OC)c1OC: 13.8

Ask | What Ki value was documented for this compound, CNCC(=O)N(C)Cc1cccc2c1CCN(c1nc(=O)c3c(C)c(OC)c(OC)cc3[nH]1)C2 ?
Reply | 1.58

Ask | What Ki value was documented for this compound, COc1cc2[nH]c(N3CCN(c4ncc[nH]4)CC3)nc(=O)c2c(OC)c1OC ?
Reply | 2.51

Ask | What Ki value was documented for this compound, COc1cc2[nH]c(N3CCC(CCn4ccnc4)CC3)nc(=O)c2c(C)c1OC ?
Reply | 2.19

====

reported-endpoint: melting point

COc1cc2c(cc1OC)CN(c1nc(=O)c3c(-c4ccc(F)cc4)c(OC)c(OC)cc3[nH]1)CC2: 220 to 225 °C
COc1cc2c(cc1OC)CN(c1nc(=O)c3c(OCCO)c(OC)c(OC)cc3[nH]1)CC2: 224 to 229 °C
COc1cc2[nH]c(N3CCc4c(cccc4NC(=N)c4ccco4)C3)nc(=O)c2c(OC)c1OC: 223.9 to 225.9 °C
COc1cc2c(cc1OC)CN(c1nc(=O)c3c(OCC4CC4)c(OC)c(OC)cc3[nH]1)CC2: 214 to 215.8 °C
COc1cc2[nH]c(N3Cc4ccc(Cl)cc4C3)nc(=O)c2c(OC)c1OC.Cl: 289 to 291 °C

Ask | What melting point value was documented for this compound, COc1cc2[nH]c(N3CCC(OCc4ccccc4S(=O)(=O)N(C)C)CC3)nc(=O)c2c(OC)c1OC ?
Reply | 186 to 188.2 °C

Ask | What melting point value was documented for this compound, COc1cc2[nH]c(N3CCc4c(cccc4/N=C(\C)N(C)C)C3)nc(=O)c2c(OC)c1OC ?
Reply | 223.5 to 226.6 °C

Ask | What melting point value was documented for this compound, COc1cc2[nH]c(N3CCC(OCc4cccc(/N=C(\C)N(C)C)c4)CC3)nc(=O)c2c(OC)c1OC ?
Reply | 56 to 64.9 °C

====

Entries and their melting point

Worked cases, answers included:
COc1cc2[nH]c(N3CCc4c(cccc4/N=C4\CCCN4C)C3)nc(=O)c2c(C(C)C)c1OC [Example 9]: 196 to 200 °C
COc1cc2c(cc1OC)CN(c1nc(=O)c3c(Cl)c(OC)c(OC)cc3[nH]1)CC2 [Example 134]: 255.4 to 259.9 °C
COc1cc2[nH]c(N3CCN(c4nccn4C)CC3)nc(=O)c2c(OC)c1OC [Example 28]: 227 to 229 °C
COc1cc2[nH]c(N3CCc4ccc(/N=C(\C)N(C)C)cc4C3)nc(=O)c2c(OC)c1OC [Example 103]: 115.8 to 120.1 °C
COc1cc2[nH]c(N3CCN(c4cccc[n+]4[O-])CC3)nc(=O)c2c(OC)c1OC [Example 26]: 142.8 to 147.2 °C

Ask | What melting point value was documented for this compound, COc1cc2[nH]c(N3CCN(c4cc(C)ccn4)CC3)nc(=O)c2c(OC)c1OC [Example 25] ?
Reply | 235.3 to 235.5 °C

Ask | What melting point value was documented for this compound, COC[C@@H]1CCCN1CCC1CCN(c2nc(=O)c3c(OC)c(OC)c(OC)cc3[nH]2)CC1 [Example 69] ?
Reply | 78.8 to 91.6 °C

Ask | What melting point value was documented for this compound, CNCC(=O)N(C)Cc1cccc2c1CCN(c1nc(=O)c3c(C)c(OC)c(OC)cc3[nH]1)C2 [Example 8] ?
Reply | 208.8 to 212 °C

Ask | What melting point value was documented for this compound, CCCC(=N)Nc1cccc2c1CCN(c1nc(=O)c3c(C)c(OC)c(OC)cc3[nH]1)C2 [Example 125] ?
Reply | 254.3 to 257.1 °C

Ask | What melting point value was documented for this compound, COC[C@@H]1CCCN1CCC1CCN(c2nc(=O)c3c(C)c(OC)c(OC)cc3[nH]2)CC1 [Example 51] ?
Reply | 83.1 to 110.9 °C

Ask | What melting point value was documented for this compound, CCN(C)Cc1ccc2c(c1)CN(c1nc(=O)c3c(C)c(OC)c(OC)cc3[nH]1)CC2 [Example 2] ?
Reply | 189.4 to 204.6 °C

====

Counter-ions that a name gives are not always drawn.
reported-endpoint: melting point

Worked cases, answers included:
COc1cc2c(cc1OC)CN(c1nc(=O)c3c(F)c(OC)c(OC)cc3[nH]1)CC2 [Example 133]: 260.8 to 269 °C
COc1cc2c(cc1OC)CN(c1nc(=O)c3c(C)c(OC)c(OC)cc3[nH]1)CC2 (as salt: HCl) [Example 121]: 260 to 268 °C

--- query ---
Ask | What melting point value was documented for this compound, COc1cc2[nH]c(N3CCC(c4cccc(/N=C(\C)N(C)C)c4)C3)nc(=O)c2c(C)c1OC (stereo not shown) [Example 142] ?
Reply | 152.2 to 154.4 °C

====

Where a name gives a salt, the structure may show the parent alone.
Entries and their melting point

COc1cc2[nH]c(N3CCc4c(ncnc4N4CCOCC4)C3)nc(=O)c2c(C)c1OC [Example 136]: > 300 °C

Ask | What melting point value was documented for this compound, COc1ccnc(N2CCN(c3nc(=O)c4c(OC)c(OC)c(OC)cc4[nH]3)CC2)c1 [Example 30] ?
Reply | 229 to 231 °C

Ask | What melting point value was documented for this compound, COc1cc2[nH]c(N3CCN(c4nccn4C)CC3)nc(=O)c2c(C)c1OC ?
Reply | 263 to 264 °C

Ask | What melting point value was documented for this compound, COc1cc2c(cc1OC)CN(c1nc(=O)c3c(O)c(OC)c(OC)cc3[nH]1)CC2 (as salt: HCl) [Example 110] ?
Reply | 255 to 259 °C

Ask | What melting point value was documented for this compound, COc1cc2[nH]c(N3CCC(CCN4CCN=C4C)CC3)nc(=O)c2c(C)c1OC ?
Reply | 266.1 to 269.5 °C

Ask | What melting point value was documented for this compound, COc1cc2[nH]c(N3CCc4c(cccc4/N=C(/C)N(C)C)C3)nc(=O)c2c(C)c1OC [Example F-1] ?
Reply | 270.9 to 273.5 °C

====

Structures can show the parent of a compound that is named as a salt.
reported-endpoint: melting point

COc1cc2[nH]c(N3CCC(CCn4ccnc4N)CC3)nc(=O)c2c(OC)c1OC: 252.4 to 253.2 °C
COc1cc2[nH]c(N3CCCN(C(=O)N4CCOCC4)CC3)nc(=O)c2c(C)c1OC (as salt: HCl) [Example 137]: 236.6 to 237.7 °C
COCCOc1c(OC)c(OC)cc2[nH]c(N3CCc4cc(OC)c(OC)cc4C3)nc(=O)c12 [Example 105]: 202.4 to 204.4 °C
COc1cc2[nH]c(N3CCN(C4=NCCN4C)CC3)nc(=O)c2c(OC)c1OC (as salt: HCl): 181.6 to 188.8 °C
COc1cc2c(cc1OC)CN(c1nc(=O)c3c(OCCOCc4ccccc4)c(OC)c(OC)cc3[nH]1)CC2 [Example 112]: 197 to 201.9 °C
COc1cc2[nH]c(N3CCC(CCn4ccnc4N)CC3)nc(=O)c2c(C)c1OC: 130.9 to 133.3 °C

--- query ---
Ask | What melting point value was documented for this molecule, COc1cc2[nH]c(N3CCN(C(=O)CCC(C)C)CC3)nc(=O)c2c(OC)c1OC.Cl ?
Reply | 198 to 201 °C
